assay: Terminal half life in Sprague-Dawley rat at 10 mg/kg, po
Assay type: ADME, organism-based
Set-up: dose 10 mg/kg, route oral
setup_conditions: in vivo, read-out: beta t1/2
measured_metric: half-life (h)
Numbers only, in h.

For the compound shown here, COc1ccc(-n2cnc3c(-c4ccccc4C)csc3c2=O)cc1 , give the reported half-life.
5.16

* * *

assay_target: Metabotropic glutamate receptor 1 (Homo sapiens)
Sequence (Q13255 19-1194 limits assumed): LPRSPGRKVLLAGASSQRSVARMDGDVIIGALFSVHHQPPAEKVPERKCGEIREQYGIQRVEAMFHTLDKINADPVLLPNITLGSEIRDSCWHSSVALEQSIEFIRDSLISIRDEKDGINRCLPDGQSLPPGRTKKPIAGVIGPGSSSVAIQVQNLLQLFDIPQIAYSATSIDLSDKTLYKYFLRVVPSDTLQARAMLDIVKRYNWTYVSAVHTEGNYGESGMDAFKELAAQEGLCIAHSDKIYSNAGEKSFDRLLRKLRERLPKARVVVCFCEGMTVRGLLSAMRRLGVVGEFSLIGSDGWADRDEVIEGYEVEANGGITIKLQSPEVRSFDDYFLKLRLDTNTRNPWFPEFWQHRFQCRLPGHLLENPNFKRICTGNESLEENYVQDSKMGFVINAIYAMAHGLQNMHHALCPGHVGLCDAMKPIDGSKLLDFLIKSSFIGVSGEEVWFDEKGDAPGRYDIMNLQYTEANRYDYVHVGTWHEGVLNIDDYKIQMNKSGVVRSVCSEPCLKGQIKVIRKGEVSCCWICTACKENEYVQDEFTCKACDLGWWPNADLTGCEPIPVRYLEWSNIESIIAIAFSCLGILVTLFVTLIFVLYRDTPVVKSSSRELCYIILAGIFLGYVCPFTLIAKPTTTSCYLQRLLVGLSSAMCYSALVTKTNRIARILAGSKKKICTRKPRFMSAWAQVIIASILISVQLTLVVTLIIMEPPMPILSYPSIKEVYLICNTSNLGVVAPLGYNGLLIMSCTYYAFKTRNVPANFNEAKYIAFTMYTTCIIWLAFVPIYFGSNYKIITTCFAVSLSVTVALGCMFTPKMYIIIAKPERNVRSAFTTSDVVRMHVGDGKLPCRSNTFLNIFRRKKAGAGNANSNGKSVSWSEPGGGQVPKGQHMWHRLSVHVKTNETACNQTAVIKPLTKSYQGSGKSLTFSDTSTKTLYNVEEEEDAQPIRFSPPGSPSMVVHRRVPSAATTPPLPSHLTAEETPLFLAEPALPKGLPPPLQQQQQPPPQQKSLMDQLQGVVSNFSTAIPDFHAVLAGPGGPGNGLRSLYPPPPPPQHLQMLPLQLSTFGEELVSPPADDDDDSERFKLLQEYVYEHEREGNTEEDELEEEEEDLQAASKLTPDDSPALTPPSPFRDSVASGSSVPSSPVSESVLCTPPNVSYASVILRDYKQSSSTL
assay: Antagonist activity at mGluR1 (unknown origin) expressed in Chem-3 cells assessed as inhibition of glutamate-induced increased intracellular calcium ion level at 1 uM after 18 hrs by fluorescence-based FDSS6000 assay
Type: functional, cell-based
Decision: inhibition >= 50% yields class 1, all other cases yield class 0.

Sample answers from the record:
O=c1c2scc(-c3ccccc3)c2ncn1-c1cccc(Cl)c1 ... class 1
Cc1ccccc1-n1cnc2c(-c3ccccc3)csc2c1=O ... class 1
O=c1c2scc(-c3ccccc3)c2ncn1-c1ccc(Cl)cc1 ... class 1
COc1ccc(-n2cnc3c(-c4ccc(F)cc4)csc3c2=O)cc1 ... class 0

Does COc1ccc(-n2cnc3c(-c4cccc(Cl)c4)csc3c2=O)cc1 have a reported inhibition of at least 50%?
class 0

Does COc1ccc(-n2cnc3c(-c4ccc(C)cc4)csc3c2=O)cc1 have a reported inhibition of at least 50%?
class 0
